Recorded values, source ChEMBL document CHEMBL1123530.

assay_remarks: Time for esterases in unfractionated mouse serum to reduce the concentration due to thio ester deacylation
Format: ADME
measured_quantity: half-life

compound	reported_value
COc1cccc2c1C(=O)c1c(O)c3c(c(O)c1C2=O)C[C@@](O)(C(=O)CSC(C)=O)C[C@@H]3OC1CC(NC(=O)C(F)(F)F)C(O)C(C)O1 (some centres undefined)	18 min
CCC(=O)SCC(=O)[C@]1(O)Cc2c(O)c3c(c(O)c2[C@@H](OC2CC(N)C(O)C(C)O2)C1)C(=O)c1c(OC)cccc1C3=O (some centres undefined)	5 min
COc1cccc2c1C(=O)c1c(O)c3c(c(O)c1C2=O)C[C@@](O)(C(=O)CSC(C)=O)C[C@@H]3OC1CC(N)C(O)C(C)O1 (some centres undefined)	6 min

With those in mind, consider the next compound.
The recorded half-life for COc1cccc2c1C(=O)c1c(O)c3c(c(O)c1C2=O)C[C@@](O)(C(=O)CSC(=O)c1ccccc1)C[C@@H]3OC1CC(N)C(O)C(C)O1 (some centres undefined) is 8 min

###

Attribute: Ratio
Tested on: Nucleic Acid
assay_remarks: Compound was tested in vitro for ability to bind with double helical calf thymus DNA was determined spectrophotometrically at 480 nmby spectral shift method and the value expressed as the ratio A/Ao
Format: nucleic-acid assay
details: Bos taurus

Solved entries (count: 5):
compound	Ratio
COc1cccc2c1C(=O)c1c(O)c3c(c(O)c1C2=O)C[C@@](O)(C(=O)CSC(=O)c1ccccc1)C[C@@H]3OC1CC(NC(=O)C(F)(F)F)C(O)C(C)O1 (stereo partly drawn)	0.98
CCC(=O)SCC(=O)[C@]1(O)Cc2c(O)c3c(c(O)c2[C@@H](OC2CC(N)C(O)C(C)O2)C1)C(=O)c1c(OC)cccc1C3=O (stereo partly drawn)	0.61
COc1cccc2c1C(=O)c1c(O)c3c(c(O)c1C2=O)C[C@@](O)(C(=O)CO)C[C@@H]3O[C@H]1C[C@H](N)[C@H](O)[C@H](C)O1 [DOXORUBICIN]	0.96
COc1cccc2c1C(=O)c1c(O)c3c(c(O)c1C2=O)C[C@@](O)(C(=O)CSC(C)=O)C[C@@H]3OC1CC(N)C(O)C(C)O1 (stereo partly drawn)	0.61
CCCCC(=O)SCC(=O)[C@]1(O)Cc2c(O)c3c(c(O)c2[C@@H](OC2CC(N)C(O)C(C)O2)C1)C(=O)c1c(OC)cccc1C3=O (stereo partly drawn)	0.65

Given the compound CCCCC(=O)OCC(=O)[C@]1(O)Cc2c(O)c3c(c(O)c2[C@@H](OC2CC(NC(=O)C(F)(F)F)C(O)C(C)O2)C1)C(=O)c1c(OC)cccc1C3=O (stereo partly drawn) and test system Nucleic Acid, the measured Ratio is 0.6

Considering COc1cccc2c1C(=O)c1c(O)c3c(c(O)c1C2=O)C[C@@](O)(C(=O)CSC(=O)c1ccccc1)C[C@@H]3OC1CC(N)C(O)C(C)O1 (stereo partly drawn) , its Ratio with Nucleic Acid was recorded as 0.65

The reported Nucleic Acid Ratio of CCCC(=O)SCC(=O)[C@]1(O)Cc2c(O)c3c(c(O)c2[C@@H](OC2CC(N)C(O)C(C)O2)C1)C(=O)c1c(OC)cccc1C3=O (stereo partly drawn) is 0.63

###

Test system: CCRF-CEM
assay_remarks: In vitro growth-inhibition assay utilizing CCRF-CEM cells, a lymphoblastic leukemic line of human origin
Format: functional
details: read-out: ID50 (the source's name)
measured_quantity: IC50

Here is how some molecules turned out for IC50.
molecule	reported_value
CCCC(=O)SCC(=O)[C@]1(O)Cc2c(O)c3c(c(O)c2[C@@H](OC2CC(N)C(O)C(C)O2)C1)C(=O)c1c(OC)cccc1C3=O (stereo partly drawn)	560 nM
COc1cccc2c1C(=O)c1c(O)c3c(c(O)c1C2=O)C[C@@](O)(C(=O)CSC(=O)c1ccccc1)C[C@@H]3OC1CC(N)C(O)C(C)O1 (stereo partly drawn)	2300 nM

From here, focus on the item given below.
The measured IC50 associated with CCCCC(=O)SCC(=O)[C@]1(O)Cc2c(O)c3c(c(O)c2[C@@H](OC2CC(NC(=O)C(F)(F)F)C(O)C(C)O2)C1)C(=O)c1c(OC)cccc1C3=O (stereo partly drawn) reads > 5000 nM
